assay: small-molecule binders of probe aInhba, primary screen, biochemical, small-molecule microarray, 635/667 nm fluorescence (AID 1148); conditions: higher = more signal;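 note: score merges 667nm spot fluorescence with signal-to-noise for antibody binding to printed compounds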
Readings of composite z-score for the listed compounds

>  <compound>
CCOC(=O)NN=C1C[C@@H](O)[C@@H](O)[C@@H]2[C@@H]3C(=O)N(Cc4ccc5c(c4)OCO5)C(=O)[C@@H]3CC[C@@H]12

>  <composite z-score>
-0.179

$$$$
>  <compound>
CCOC(=O)[C@H](CC(C)C)NC(=O)CCC1CC(OC(=O)NCc2cccc3ccccc23)CC2(CCCC(COC(=O)NCc3ccccc3)O2)O1 (some centres undefined)

>  <composite z-score>
0.0038

$$$$
>  <compound>
CCN1C(=O)[C@H]2[C@H]3[C@H](O)[C@H](O)CC(=NNC(=O)OCc4ccc(OC)cc4)[C@H]3CC[C@H]2C1=O

>  <composite z-score>
0.124

$$$$
>  <compound>
CC(C)CON=C1C[C@@H](O)[C@@H](O)[C@@H]2[C@@H]3C(=O)N(c4cccc(Oc5ccccc5)c4)C(=O)[C@@H]3CC[C@H]12

>  <composite z-score>
-0.102

$$$$

* * *

target: Concanavalin-A (Canavalia ensiformis) (UniProt P02866); assay: ConA small-molecule binders, primary screen, artefact control for SMM control protein annotation, biochemical, small-molecule microarray, Alexa647 label, 635 nm (AID 1127); details: ConA-A647 binding fluorescence, higher = more signal;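 note: z combines 667 nm emission intensity with signal-to-noise across three replicate slides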
Sequence (P02866 whole entry, looked up): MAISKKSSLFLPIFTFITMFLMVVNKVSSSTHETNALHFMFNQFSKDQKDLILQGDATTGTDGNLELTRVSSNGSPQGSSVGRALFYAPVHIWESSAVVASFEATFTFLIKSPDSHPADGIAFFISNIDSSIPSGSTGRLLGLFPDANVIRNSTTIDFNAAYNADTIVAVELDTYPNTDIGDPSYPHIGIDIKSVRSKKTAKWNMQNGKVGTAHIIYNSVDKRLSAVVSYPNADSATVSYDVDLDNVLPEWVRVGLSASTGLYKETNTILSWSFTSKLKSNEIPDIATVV
Readings of composite z-score for the listed compounds

>  <compound>
CO[C@@H]1COC(=O)CC=C[C@H](C)COC(=O)[C@H](C)NC(=O)CC=C[C@H]1C

>  <composite z-score>
0.161

$$$$
>  <compound>
CO[C@@H]1C=CCC(=O)N2CCC[C@H]2C(=O)OC[C@H](C)C(=O)OC[C@H]1C

>  <composite z-score>
-0.607

$$$$
>  <compound>
CCOC(=O)NN=C1C[C@@H](O)[C@@H](O)[C@@H]2[C@@H]3C(=O)N(Cc4ccc5c(c4)OCO5)C(=O)[C@@H]3CC[C@@H]12

>  <composite z-score>
0.837

$$$$
>  <compound>
CC(=O)OC[C@H]1O[C@H](C#CC(C)(C)C)C=C[C@@H]1OC(C)=O

>  <composite z-score>
1.09

$$$$
>  <compound>
CC(C)=CCCC(C)=CCON=C1C[C@@H](O)[C@@H](O)[C@@H]2[C@@H]3C(=O)N([C@@H](C)c4ccccc4)C(=O)[C@@H]3CC[C@H]12

>  <composite z-score>
0.0996

$$$$
>  <compound>
C#CCCCON=C1C[C@@H](O)[C@@H](O)[C@@H]2[C@@H]3C(=O)N(C4CCCCC4)C(=O)[C@@H]3CC[C@H]12

>  <composite z-score>
1.15

$$$$
>  <compound>
Cc1ccc(S(=O)(=O)N[C@H]2COC(=O)[C@@H](C)COC(=O)[C@H](C)NC(=O)CC=C[C@H]2C)cc1

>  <composite z-score>
-0.681

$$$$
>  <compound>
CC(C)CCN1CCc2nc(-c3ccccc3)c3c(c2C1)CO[C@@H](C)C3

>  <composite z-score>
0.263

$$$$
>  <compound>
CC(C)=NOCc1ccc(-c2cn([C@@H]3COC[C@H]3O)nn2)cc1

>  <composite z-score>
0.0843

$$$$
>  <compound>
CCOC(=O)[C@H](CC(C)C)NC(=O)CCC1CC(OC(=O)NCc2cccc3ccccc23)CC2(CCCC(COC(=O)NCc3ccccc3)O2)O1 (some centres not stated)

>  <composite z-score>
-0.68

$$$$
>  <compound>
C[C@@H]1CC[C@@H](C(=O)O)N[C@H]1c1ccc(-c2ccco2)cc1

>  <composite z-score>
0.529

$$$$
>  <compound>
CCN1C(=O)[C@H]2[C@H]3[C@H](O)[C@H](O)CC(=NNC(=O)OCc4ccc(OC)cc4)[C@H]3CC[C@H]2C1=O

>  <composite z-score>
0.364

$$$$
>  <compound>
CO[C@H]1COC(=O)CC=C[C@@H](C)COC(=O)[C@@H](OCc2ccccc2)C=C[C@@H]1C

>  <composite z-score>
-1.64

$$$$
>  <compound>
CC(C)=NO[C@@H](C)c1cc(-c2c(C)cc(C)cc2C)no1

>  <composite z-score>
0.154

$$$$
>  <compound>
CCCNC(=O)OC[C@H]1O[C@H](CCON=C(C)CCN2CCc3nc(-c4ccccc4)c(-c4ccccc4)cc3C2)C=C[C@@H]1Oc1ccc(OC)cc1

>  <composite z-score>
0.472

$$$$
>  <compound>
CCN1C(=O)[C@H]2[C@H]3[C@H](O)[C@H](O)CC(=NOC)[C@@H]3CC[C@H]2C1=O

>  <composite z-score>
-0.0569

$$$$
>  <compound>
CC(C)=NOC[C@@H](O)COCc1ccco1

>  <composite z-score>
-0.703

$$$$
